- PROCEDURE_TEXT: physchem
- STATED_CONDITIONS: 37 °C, pH 1.2, simulated gastric fluid, thermodynamic from solid, Solubility expressed as Valbenazine free base
EXPERIMENTAL_READOUT: solubility at 24 h (mg/mL)
Quick note: give the figure in mg/mL, leave out the unit.

Specify solubility at 24 h for COc1cc2c(cc1OC)[C@H]1C[C@@H](OC(=O)[C@@H](N)C(C)C)[C@H](CC(C)C)CN1CC2 [Free base] and stop.
21.3
